All figures here come from the supplement of paper PMC10515830.

# Test system: Danio rerio larvae (5 dpf)
# EXPERIMENT: difference in excitability vs DMSO (percentage points); higher = more excitable than DMSO
# CONDITION: 10 µM; exposure time 6 h
Where a name gives a salt, the structure may show the parent alone.
ASSAY ENDPOINT: difference in excitability
Give the figure only, with no unit attached.

Given the compound O=C1Cc2cc(CCN3CCN(c4nsc5ccccc45)CC3)c(Cl)cc2N1 [Ziprasidone (hydrochloride hydrate)] , what is its reported difference in excitability?
26.8

Given the compound c1cnc2cc3c(cc2n1)[C@@H]1CNC[C@H]3C1 [Varenicline (tartrate)] , what is its reported difference in excitability?
0.228

Given the compound C[C@H](N[C@@H](CCc1ccccc1)C(=O)O)C(=O)N1CCC[C@H]1C(=O)O [Enalaprilat (hydrate)] , what is its reported difference in excitability?
-0.583

Given the compound C=C1CC[C@H](O)C/C1=C/C=C1\CCC[C@]2(C)[C@@H]([C@H](C)CCCC(C)(C)O)CC[C@@H]12 [25-hydroxy Vitamin D3] , what is its reported difference in excitability?
4.23

###

# Tested on: Danio rerio larvae (5 dpf)
# EXPERIMENT: difference in habituation to acoustic stimuli vs DMSO (percentage points); higher = more habituation than DMSO
# CONDITION: 10 µM; exposure time 6 h
Structures can show the parent of a compound that is named as a salt.
ASSAY ENDPOINT: difference in habituation to acoustic stimuli
Give the figure only, with no unit attached.

Given the compound C[N+](C)(C)CC=O [Betaine Aldehyde (chloride)] , what is its reported difference in habituation to acoustic stimuli?
-0.929

Given the compound CCCCCCCC/C=C\CCCCCCCC(=O)NCCO [Oleoyl Ethanolamide] , what is its reported difference in habituation to acoustic stimuli?
-3.04

Given the compound C[C@@H](O)[C@@H]1NC(=O)[C@H](CCCCN)NC(=O)[C@@H](Cc2c[nH]c3ccccc23)NC(=O)[C@H](Cc2ccccc2)NC(=O)[C@@H](NC(=O)[C@H](N)Cc2ccccc2)CSSC[C@@H](C(=O)N[C@H](CO)[C@@H](C)O)NC1=O [Octreotide (acetate)] , what is its reported difference in habituation to acoustic stimuli?
-0.654

Given the compound CC(=O)NCCCS(=O)(=O)O [Acamprosate (calcium salt)] , what is its reported difference in habituation to acoustic stimuli?
7.23

Given the compound Nc1ncn([C@@H]2O[C@H](CO)[C@@H](O)[C@H]2O)c(=O)n1 , what is its reported difference in habituation to acoustic stimuli?
-4.6

Given the compound CC(C[N+](C)(C)C)OC(N)=O (centres undefined) [Bethanechol (chloride)] , what is its reported difference in habituation to acoustic stimuli?
0.388

Given the compound CNC(=O)c1ccc(N2C(=S)N(c3ccc(C#N)c(C(F)(F)F)c3)C(=O)C2(C)C)cc1F , what is its reported difference in habituation to acoustic stimuli?
-1.47

Given the compound Cn1c(=O)c2nc[nH]c2n(C)c1=O , what is its reported difference in habituation to acoustic stimuli?
4.58

Given the compound COc1ccc2[nH]c([S@@+]([O-])Cc3ncc(C)c(OC)c3C)nc2c1 , what is its reported difference in habituation to acoustic stimuli?
-0.745

###

# Test system: Danio rerio larvae (5 dpf)
# EXPERIMENT: difference in excitability vs DMSO (percentage points); higher = more excitable than DMSO
# CONDITION: 10 µM; exposure time 6 h
Counter-ions that a name gives are not always drawn.
ASSAY ENDPOINT: difference in excitability
Give the figure only, with no unit attached.

Given the compound O=C1CC2(CCCC2)CC(=O)N1CCCCN1CCN(c2ncccn2)CC1 [Buspirone (hydrochloride)] , what is its reported difference in excitability?
24.5

Given the compound O=C1CCc2ccc(OCCCCN3CCN(c4cccc(Cl)c4Cl)CC3)cc2N1 , what is its reported difference in excitability?
14.5

Given the compound O=C(O[C@@H]1C[C@@H]2C[C@H]3C[C@H](C1)N2CC3=O)c1c[nH]c2ccccc12 , what is its reported difference in excitability?
10.9

Given the compound Nc1nc(Cl)nc2c1ncn2[C@@H]1O[C@H](CO)[C@@H](O)[C@@H]1F , what is its reported difference in excitability?
-0.183

Given the compound CN(C)CCC=C1c2ccccc2CCc2ccccc21 [Amitriptyline (hydrochloride)] , what is its reported difference in excitability?
2.65

Given the compound CCCCCN(C)CCC(O)(P(=O)(O)O)P(=O)(O)O [Ibandronate (sodium hydrate)] , what is its reported difference in excitability?
-4.51

Given the compound CC(CN(C)C)CN1c2ccccc2CCc2ccccc21 (stereo not drawn) [Trimipramine (maleate)] , what is its reported difference in excitability?
12.5

Given the compound CN1CCC[C@@H]1Cc1c[nH]c2ccc(CCS(=O)(=O)c3ccccc3)cc12 , what is its reported difference in excitability?
0.175

###

# Test system: Danio rerio larvae (5 dpf)
# EXPERIMENT: difference in habituation to acoustic stimuli vs DMSO (percentage points); higher = more habituation than DMSO
# CONDITION: 10 µM; exposure time 6 h
Where a name gives a salt, the structure may show the parent alone.
ASSAY ENDPOINT: difference in habituation to acoustic stimuli
Give the figure only, with no unit attached.

Danio rerio larvae (5 dpf) / difference in habituation to acoustic stimuli / O=C1CC2(CCCC2)CC(=O)N1CCCCN1CCN(c2ncccn2)CC1 [Buspirone (hydrochloride)] : value?
4.59

Danio rerio larvae (5 dpf) / difference in habituation to acoustic stimuli / CCCSc1ccc2[nH]c(NC(=O)OC)nc2c1 : value?
0.0113

Danio rerio larvae (5 dpf) / difference in habituation to acoustic stimuli / N=C(N)NCCC[C@@H](NC(=O)[C@@H]1CCCN1C(=O)[C@@H]1CSSCCC(=O)N[C@@H](Cc2ccc(O)cc2)C(=O)N[C@@H](Cc2ccccc2)C(=O)N[C@@H](CCC(N)=O)C(=O)N[C@@H](CC(N)=O)C(=O)N1)C(=O)NCC(N)=O [Desmopressin (trifluoroacetate salt)] : value?
-4.29

Danio rerio larvae (5 dpf) / difference in habituation to acoustic stimuli / CC(=O)[C@H]1CC[C@H]2[C@@H]3CCC4=CC(=O)CC[C@]4(C)[C@H]3CC[C@]12C : value?
-12.3

Danio rerio larvae (5 dpf) / difference in habituation to acoustic stimuli / CC(N)C12CC3CC(CC(C3)C1)C2 (stereo not given) [Rimantadine (hydrochloride)] : value?
3.17

###

# System: Danio rerio larvae (5 dpf)
# EXPERIMENT: difference in activity during first hour vs DMSO (percentage points); higher = more activity than DMSO
# CONDITION: 10 µM; exposure time 6 h
Where a name gives a salt, the structure may show the parent alone.
// label = MET if difference in activity during first hour is not less than -3, otherwise NOT MET

Confirm if difference in activity during first hour reported for the compound O=C1CN2Cc3c(ccc(Cl)c3Cl)N=C2N1 [Anagrelide (hydrochloride)] is -3 or above.
NOT MET

Confirm if difference in activity during first hour reported for the compound CCCCCCCCCCCCCCCCCCCCCCO is -3 or above.
MET

Confirm if difference in activity during first hour reported for the compound CO[C@H]1O[C@@H]2O[C@@]3(C)CC[C@H]4[C@H](C)CC[C@@H]([C@H]1C)[C@@]24OO3 is -3 or above.
MET

Confirm if difference in activity during first hour reported for the compound CC[C@]1(O)C[C@@H]2CN(CCc3c([nH]c4ccccc34)[C@@](C(=O)OC)(c3cc4c(cc3OC)N(C)[C@H]3[C@@](O)(C(=O)OC)[C@H](OC(C)=O)[C@]5(CC)C=CCN6CC[C@]43[C@@H]65)C2)C1 [Vinblastine (sulfate)] is -3 or above.
NOT MET

Confirm if difference in activity during first hour reported for the compound Cc1cc(C2CCCCC2)n(O)c(=O)c1 is -3 or above.
MET

Confirm if difference in activity during first hour reported for the compound CC(=O)O[C@H]1CC[C@@]2(C)C(=CC[C@@H]3[C@@H]2CC[C@]2(C)C(c4cccnc4)=CC[C@@H]32)C1 [Abiraterone Acetate] is -3 or above.
MET

Confirm if difference in activity during first hour reported for the compound COc1cccc2c1C(=O)c1c(O)c3c(c(O)c1C2=O)C[C@@](O)(C(=O)CO)C[C@@H]3O[C@H]1C[C@H](N)[C@H](O)[C@H](C)O1 [Doxorubicin (hydrochloride)] is -3 or above.
NOT MET

Confirm if difference in activity during first hour reported for the compound CCOc1ccccc1OCCN[C@H](C)Cc1ccc(OC)c(S(N)(=O)=O)c1 [Tamsulosin (hydrochloride)] is -3 or above.
NOT MET

Confirm if difference in activity during first hour reported for the compound Nc1[nH]c(=O)ncc1F is -3 or above.
NOT MET

Confirm if difference in activity during first hour reported for the compound Oc1ncnc2[nH]ncc12 is -3 or above.
MET

Confirm if difference in activity during first hour reported for the compound O=C(O)CSc1nnc(Br)n1-c1ccc(C2CC2)c2ccccc12 is -3 or above.
MET

Confirm if difference in activity during first hour reported for the compound CC1(C)O[C@@H]2C[C@H]3[C@@H]4C[C@H](F)C5=CC(=O)C=C[C@]5(C)[C@H]4[C@@H](O)C[C@]3(C)[C@]2(C(=O)CO)O1 [Flunisolide] is -3 or above.
MET

Confirm if difference in activity during first hour reported for the compound Cc1cn([C@H]2C=C[C@@H](CO)O2)c(=O)[nH]c1=O is -3 or above.
MET

Confirm if difference in activity during first hour reported for the compound C=C1CCN([C@H](C)[C@](O)(Cn2cncn2)c2ccc(F)cc2F)CC1 is -3 or above.
NOT MET

Confirm if difference in activity during first hour reported for the compound NNCCc1ccccc1 [Phenelzine (sulfate)] is -3 or above.
NOT MET

Confirm if difference in activity during first hour reported for the compound Nc1nc(F)nc2c1ncn2[C@@H]1O[C@H](COP(=O)(O)O)[C@@H](O)[C@@H]1O [Fludarabine Phosphate] is -3 or above.
MET

Confirm if difference in activity during first hour reported for the compound CN(C)[C@@H]1C(O)=C(C(N)=O)C(=O)[C@@]2(O)C(O)=C3C(=O)c4c(O)cccc4[C@@](C)(O)[C@H]3C[C@@H]12 [Tetracycline (hydrochloride)] is -3 or above.
MET

Confirm if difference in activity during first hour reported for the compound CCS(=O)(=O)N1CC(CC#N)(n2cc(-c3ncnc4[nH]ccc34)cn2)C1 is -3 or above.
MET
